inhibition at 10 µM: recorded values
test system: Hepatitis B virus (HBV); assay: Activity for inhibiting proliferation of Hepatitis B virus (HBV): inhibition of HBV-DNA synthesis in HB611 cells; type: cell-based; settings: 408 h, 10 μM, HB611 cells, DNA collected on 17th day, read-out: Inhibitory ratio against HBV-DNA synthesis (%)
Give the number; % is assumed, so skip it.

| substance.smiles | tested.target | numeric.result |
| --- | --- | --- |
| CN(C)c1nc(N)nc2c1ncn2CCOCP(=O)(OCC(F)(F)F)OCC(F)(F)F | Hepatitis B virus (HBV) | 100 |
| CN(C)c1nc(N)nc2c1nnn2CCOCP(=O)(OCC(F)(F)F)OCC(F)(F)F | Hepatitis B virus (HBV) | 100 |
| CCN(CC)c1nc(N)nc2c1ncn2CCOCP(=O)(OCC(F)(F)F)OCC(F)(F)F | Hepatitis B virus (HBV) | 100 |

Okay, next one:
Input line: Reported inhibition at 10 µM, molecule CCCN(C)c1nc(N)nc2c1ncn2CCOCP(=O)(OCC(F)(F)F)OCC(F)(F)F : ____
Output line: 100

These entries and their values trace back to patent US6197775A.
